Values compiled from the supplement of paper PMC10307832.

System: HCC-827
experimental details: relative viability (nuclei count vs DMSO), 5 days (fraction); higher = more cells survive
settings: first compound 0.01581 µM

molecule: COc1cc2nccc(Oc3ccc(NC(=O)Nc4cc(C)on4)c(Cl)c3)c2cc1OC [Tivozanib] + NC(=O)Nc1cc(-c2cccc(F)c2)sc1C(=O)N[C@H]1CCCNC1 [AZD7762] (partner 0.2 µM)
target system: HCC-827
relative viability: 0.25
--
molecule: Nc1ccn([C@@H]2O[C@H](CO)[C@@H](O)[C@@H]2O)c(=O)n1 [Cytarabine] + CC1(C)CCC(c2ccc(Cl)cc2)=C(CN2CCN(c3ccc(C(=O)NS(=O)(=O)c4ccc(N[C@H](CCN5CCOCC5)CSc5ccccc5)c(S(=O)(=O)C(F)(F)F)c4)cc3)CC2)C1 [Navitoclax] (partner 0.5 µM)
target system: HCC-827
relative viability: 0.529
--
molecule: Nc1ccn([C@@H]2O[C@H](CO)[C@@H](O)[C@@H]2O)c(=O)n1 [Cytarabine] + O=C(CCCCCCC(=O)Nc1ccccc1)NO [Vorinostat] (partner 1 µM)
target system: HCC-827
relative viability: 0.331
--
molecule: Nc1ccn([C@@H]2O[C@H](CO)[C@@H](O)[C@@H]2O)c(=O)n1 [Cytarabine] + Nc1nc2[nH]cc(CCc3ccc(C(=O)N[C@@H](CCC(=O)O)C(=O)O)cc3)c2c(=O)[nH]1 [Pemetrexed] (partner 0.2 µM)
target system: HCC-827
relative viability: 0.281
